- System: Diet Induced Obese (DIO) mice
- assay_explanation: Body weight, blood glucose and fat mass in Diet Induced Obese mice, 10 days (Example 6)
- Format: in vivo, Male C57BL/6 mice
- condition_details: male DIO mice; 10 days twice daily intraperitoneal 15 mg/kg; N = 8; mean
metric_name: Difference from Vehicle Control: Decrease from Baseline in Blood Glucose (mg/dL)
Note: unit mg/dL is implicit; provide only the numeric part.

Prompt: Please indicate Difference from Vehicle Control: Decrease from Baseline in Blood Glucose recorded for H-RWQEMQYIFYPR-OH [compound 211]
Response: -2.25

New cases:
Prompt: Please indicate Difference from Vehicle Control: Decrease from Baseline in Blood Glucose recorded for H-MRWQEMGYIFYPRKL-OH [compound 45]
Response: 6.00

Prompt: Please indicate Difference from Vehicle Control: Decrease from Baseline in Blood Glucose recorded for H-MRWQEMGYIFYPRNLR-OH [compound 213]
Response: -20.1

Prompt: Please indicate Difference from Vehicle Control: Decrease from Baseline in Blood Glucose recorded for H-MRWQEMGYIFYPRKLR-OH [compound 2]
Response: -4.88

Prompt: Please indicate Difference from Vehicle Control: Decrease from Baseline in Blood Glucose recorded for H-MRWQEMQYIFYPRALR-OH [compound 219]
Response: -17.3

Prompt: Please indicate Difference from Vehicle Control: Decrease from Baseline in Blood Glucose recorded for H-MRAQEMGYIFYPRKLR-OH [compound 8]
Response: -20.0

###

Reported values of remaining at 0.25 h, 10 uM for individual entries
- assay_explanation: Stability in mouse plasma, peptides 10 uM (Example 15)
- Format: in vitro ADME
- condition_details: pooled mouse plasma; mouse plasma 37° C.; peptide 10 uM; 15 min; read-out: % Remaining at Each Time Point: 15 min
- Protocol: Peptides (10 uM) were incubated in pooled mouse plasma at 37° C. and samples were removed and immediately analyzed for the concentration of intact peptide by LC/MS/MS over the course of 3 hours. The percent of peptide remaining in plasma at each time point was calculated relative to the initial peak area (Table 13).
Note: unit % is implicit; provide only the numeric part.

Prompt: Please indicate remaining at 0.25 h, 10 uM recorded for H-RWQEEQYIAEPR-OH [compound 266]
Response: 70.7

Now take the following substance into account.
Prompt: Please indicate remaining at 0.25 h, 10 uM recorded for H-RWQEMNYIFYP-OH [compound 283]
Response: 54.3

###

- assay_explanation: Stability in mouse plasma, peptides 100 uM (Example 14)
- Type: in vitro ADME
- condition_details: pooled mouse plasma; mouse plasma 37° C.; peptide 100 uM; 30 min; read-out: % Remaining at Each Time Point: 30 min
metric_name: remaining at 0.5 h, 100 uM (%)
Note: unit % is implicit; provide only the numeric part.

Prompt: Please indicate remaining at 0.5 h, 100 uM recorded for H-MRWQEAGYIFYPRKLR-OH [compound 11]
Response: 17.5

Prompt: Please indicate remaining at 0.5 h, 100 uM recorded for H-MRWQEMGYIFYPRNLR-OH [compound 213]
Response: 29.4

Now take the following substance into account.
Prompt: Please indicate remaining at 0.5 h, 100 uM recorded for H-RWQEMGYIFYPRALR-OH [compound 215]
Response: 37.1

###

- assay_explanation: Stability in monkey plasma (Example 16)
- Type: in vitro ADME
- condition_details: Monkey plasma 37° C.; peptide 10 uM; 120 min; read-out: % Remaining at Each Time Point: 120 min
Reported values of remaining at 2 h, 10 uM for individual entries

Some solved cases for reference:
Prompt: Please indicate remaining at 2 h, 10 uM recorded for H-RWQEMNYIFYPR-OH [compound 210]
Response: 87.9%

Prompt: Please indicate remaining at 2 h, 10 uM recorded for H-MRWQEMGYIFYPRKLR-OH [compound 2]
Response: 39.8%

Now take the following substance into account.
Prompt: Please indicate remaining at 2 h, 10 uM recorded for H-MRWQEMNYIFYPR-OH [compound 208]
Response: 89%

Cited source for all entries: patent US11753445B2
